Tested on: envelope glycoprotein of Marburgvirus
Test: Selectivity index, ratio of CC50 for human A549 cells to IC50 for inhibition of envelope glycoprotein in HIV pseudotyped Marburgvirus infected in human A549 cells assessed as reduction in virus entry
Type: toxicity, cell-based
Conditions: read-out: Ratio CC50/IC50
Listing: selectivity ratio of selected compounds
Please respond with just the number, no unit label.

The cases that follow already have their selectivity ratio on record.
{"compound": "Cc1ccc2nc(NCC(O)COc3ccc4c(C)c(Cc5ccccc5)c(=O)oc4c3)sc2c1 (centres undefined)", "systemUnderTest": "envelope glycoprotein of Marburgvirus", "parameter": "selectivity ratio", "number": 11.3}
{"compound": "Cc1c(Cc2ccccc2)c(=O)oc2cc(OCC(CN3CCC(C(N)=O)CC3)Oc3ccccc3F)ccc12 (centres undefined)", "systemUnderTest": "envelope glycoprotein of Marburgvirus", "parameter": "selectivity ratio", "number": 3.9}
{"compound": "C#CCNCC(O)COc1ccc2c(C)c(Cc3ccccc3)c(=O)oc2c1 (centres undefined)", "systemUnderTest": "envelope glycoprotein of Marburgvirus", "parameter": "selectivity ratio", "number": 17.2}
{"compound": "Cc1c(Cc2ccc(-c3ccc(C=O)c(F)c3)cc2)c(=O)oc2cc(OCC(O)CN3CCC(C(N)=O)CC3)ccc12 (centres undefined)", "systemUnderTest": "envelope glycoprotein of Marburgvirus", "parameter": "selectivity ratio", "number": 11.9}
{"compound": "NC(=O)C1CCN(CC(O)COc2ccc3c(C4CC4)c(Cc4ccccc4)c(=O)oc3c2)CC1 (centres undefined)", "systemUnderTest": "envelope glycoprotein of Marburgvirus", "parameter": "selectivity ratio", "number": 15.3}

Asked: Any idea what selectivity ratio was measured for Cc1c(Cc2cccc3ccccc23)c(=O)oc2cc(OCC(O)CN3CCC(C(N)=O)CC3)ccc12 (centres undefined) ?
Given back: 36.6

Asked: Would you kindly repeat that for Cc1c(Cc2ccccc2)c(=O)oc2cc(OCC(O)CNCCCO)ccc12 (centres undefined) ?
Given back: 6.3

Asked: Would you kindly repeat that for Cc1c(Cc2ccc(F)cc2F)c(=O)oc2cc(OCC(O)CN3CCC(C(N)=O)CC3)ccc12 (centres undefined) ?
Given back: 23.6

Asked: Would you kindly repeat that for Cc1c(Cc2ccc(-c3ccccc3)cc2)c(=O)oc2cc(OCC(O)CN3CCC(C(N)=O)CC3)ccc12 (centres undefined) ?
Given back: 111

----------
System: envelope glycoprotein of Marburgvirus
Assay: Selectivity index, ratio of CC50 for human A549 cells to IC50 for inhibition of envelope glycoprotein in HIV pseudotyped Marburgvirus infected in human A549 cells assessed as reduction in virus entry
Assay type: toxicity, cell-based
Details: read-out: Ratio CC50/IC50
parameter: selectivity ratio

The cases that follow already have their selectivity ratio on record.
{"compound": "Cc1c(Cc2ccc(-c3ccc(F)cc3)cc2)c(=O)oc2cc(OCC(O)CN3CCC(C(N)=O)CC3)ccc12 (configuration not stated)", "selectivity ratio": 18.1}
{"compound": "Cc1c(Cc2ccc(OC(F)(F)F)cc2)c(=O)oc2cc(OCC(O)CNc3nccs3)ccc12 (configuration not stated)", "selectivity ratio": 82.5}
{"compound": "Cc1c(Cc2ccccc2)c(=O)oc2cc(OCC(O)CNc3nccs3)ccc12 (configuration not stated)", "selectivity ratio": 33.2}
{"compound": "Cc1c(Cc2ccc(-c3ccccc3C#N)cc2)c(=O)oc2cc(OCC(O)CN3CCC(C(N)=O)CC3)ccc12 (configuration not stated)", "selectivity ratio": 18.2}
{"compound": "Cc1c(Cc2ccccc2)c(=O)oc2cc(OCC(O)CNCCc3cccnc3)ccc12 (configuration not stated)", "selectivity ratio": 16.4}

Asked: Any idea what selectivity ratio was measured for Cc1c(Cc2ccccc2)c(=O)oc2cc(OCC(O)CNc3ccccc3)ccc12 (configuration not stated) ?
Given back: 1

Asked: Would you kindly repeat that for COc1ccc(OC(COc2ccc3c(C)c(Cc4ccccc4)c(=O)oc3c2)CN2CCC(C(N)=O)CC2)cc1 (configuration not stated) ?
Given back: 11.9

----------
System: envelope glycoprotein of Marburgvirus
Assay: Selectivity index, ratio of CC50 for human A549 cells to IC50 for inhibition of envelope glycoprotein in HIV pseudotyped Marburgvirus infected in human A549 cells assessed as reduction in virus entry
Assay type: toxicity, cell-based
Conditions: read-out: Ratio CC50/IC50
parameter: selectivity ratio
Please respond with just the number, no unit label.

The cases that follow already have their selectivity ratio on record.
{"compound": "Cc1c(Cc2ccccc2C(F)(F)F)c(=O)oc2cc(OCC(O)CN3CCC(C(N)=O)CC3)ccc12 (centres undefined)", "number": 33}
{"compound": "Cc1c(Cc2ccccc2)c(=O)oc2cc(OCC(O)CNCc3cccs3)ccc12 (centres undefined)", "number": 24.9}
{"compound": "Cc1c(Cc2ccc(C(F)(F)F)cc2)c(=O)oc2cc(OCC(O)CN3CCC(C(N)=O)CC3)ccc12 (centres undefined)", "number": 83.7}

Now look at this one.
Asked: Any idea what selectivity ratio was measured for Cc1c(Cc2ccc(-c3ccc(C#N)c(F)c3)cc2)c(=O)oc2cc(OCC(O)CN3CCC(C(N)=O)CC3)ccc12 (centres undefined) ?
Given back: 12.8

----------
Tested on: envelope glycoprotein of Marburgvirus
Experiment: Selectivity index, ratio of CC50 for human A549 cells to IC50 for inhibition of envelope glycoprotein in HIV pseudotyped Marburgvirus infected in human A549 cells assessed as reduction in virus entry
Type: toxicity, cell-based
Conditions: read-out: Ratio CC50/IC50
parameter: selectivity ratio
Please respond with just the number, no unit label.

The cases that follow already have their selectivity ratio on record.
{"molecule": "Cc1c(Cc2ccccc2)c(=O)oc2cc(OCC(O)CNCCCCCCO)ccc12 (centres undefined)", "selectivity ratio": 16.6}
{"molecule": "Cc1c(Cc2ccccc2)c(=O)oc2cc(OCC(O)CNc3ccc(Br)cc3)ccc12 (centres undefined)", "selectivity ratio": 1}
{"molecule": "NC(=O)C1CCN(CC(O)COc2ccc3c(C4CC4)cc(=O)oc3c2)CC1 (centres undefined)", "selectivity ratio": 3}
{"molecule": "Cc1c(Cc2ccccc2)c(=O)oc2cc(OCC(O)CNn3ccnn3)ccc12 (centres undefined)", "selectivity ratio": 1}

Asked: Any idea what selectivity ratio was measured for Cc1c(Cc2ccc(-c3ccc(Cl)cc3)cc2)c(=O)oc2cc(OCC(O)CN3CCC(C(N)=O)CC3)ccc12 (centres undefined) ?
Given back: 31.8

Asked: Would you kindly repeat that for Cc1c(Cc2ccc(F)cc2)c(=O)oc2cc(OCC(O)CN3CCC(C(N)=O)CC3)ccc12 (centres undefined) ?
Given back: 83.7

Asked: Would you kindly repeat that for Cc1c(Cc2ccc(OC(F)(F)F)cc2)c(=O)oc2cc(OC[C@@H](O)CN3CCC(C(N)=O)CC3)ccc12 ?
Given back: 46.3

Asked: Would you kindly repeat that for Cc1c(Cc2ccccc2)c(=O)oc2cc(OCC(O)CNCCc3ccncc3)ccc12 (centres undefined) ?
Given back: 36.6

Asked: Would you kindly repeat that for COc1ccccc1-c1ccc(Cc2c(C)c3ccc(OCC(O)CN4CCC(C(N)=O)CC4)cc3oc2=O)cc1 (centres undefined) ?
Given back: 30

----------
Listing: selectivity ratio of selected compounds
Tested on: envelope glycoprotein of Marburgvirus
Test: Selectivity index, ratio of CC50 for human A549 cells to IC50 for inhibition of envelope glycoprotein in HIV pseudotyped Marburgvirus infected in human A549 cells assessed as reduction in virus entry
Type: toxicity, cell-based
Conditions: read-out: Ratio CC50/IC50
Please respond with just the number, no unit label.

Asked: Any idea what selectivity ratio was measured for Cc1cc(F)ccc1Cc1c(C)c2ccc(OCC(O)CN3CCC(C(N)=O)CC3)cc2oc1=O (centres undefined) ?
Given back: 33.3

Asked: Would you kindly repeat that for Cc1c(Cc2cccc(F)c2)c(=O)oc2cc(OCC(O)CN3CCC(C(N)=O)CC3)ccc12 (centres undefined) ?
Given back: 22.5

Asked: Would you kindly repeat that for Cc1c(Cc2ccccc2)c(=O)oc2cc(OCC(CN3CCC(C(N)=O)CC3)Oc3ccc(F)cc3)ccc12 (centres undefined) ?
Given back: 5.5

Asked: Would you kindly repeat that for Cc1c(Cc2ccc(Br)cc2)c(=O)oc2cc(OCC(O)CN3CCC(C(N)=O)CC3)ccc12 (centres undefined) ?
Given back: 85.7

Asked: Would you kindly repeat that for Cc1c(Cc2ccccc2)c(=O)oc2cc(OCC(O)CNC3CCOCC3)ccc12 (centres undefined) ?
Given back: 17.1

Asked: Would you kindly repeat that for COc1ccc(Cc2c(C)c3ccc(OCC(O)CN4CCC(C(N)=O)CC4)cc3oc2=O)c(Br)c1 (centres undefined) ?
Given back: 8.6

Asked: Would you kindly repeat that for Cc1c(Cc2ccccc2)c(=O)oc2cc(OCC(O)CNc3cc([N+](=O)[O-])ccc3O)ccc12 (centres undefined) ?
Given back: 1

Asked: Would you kindly repeat that for COC(CNCCc1ccncc1)COc1ccc2c(C)c(Cc3ccccc3)c(=O)oc2c1 (centres undefined) ?
Given back: 9.6

Asked: Would you kindly repeat that for Cc1c(Cc2ccc(OC(F)(F)F)cc2)c(=O)oc2cc(OCC(O)CN3CCC(C(N)=O)CC3)ccc12 (centres undefined) ?
Given back: 56.8
